Settings: in acetonitrile, 318.15 K
readout name: solubility (mole fraction)
The answer should be a number; do not append a unit.

// Input: "Cc1ccc(Nc2nccc(N(C)c3ccc4c(C)n(C)nc4c3)n2)cc1S(N)(=O)=O" . Output its solubility (mole fraction) only. 1.8e-05

---

Settings: in n-butanol, 288.15 K
readout name: solubility (mole fraction)
The answer should be a number; do not append a unit.

// Input: "Cc1ccc(Nc2nccc(N(C)c3ccc4c(C)n(C)nc4c3)n2)cc1S(N)(=O)=O" . Output its solubility (mole fraction) only. 1.07e-05

---

Settings: in acetonitrile, 328.15 K
readout name: solubility (mole fraction)
The answer should be a number; do not append a unit.

// Input: "Cc1ccc(Nc2nccc(N(C)c3ccc4c(C)n(C)nc4c3)n2)cc1S(N)(=O)=O" . Output its solubility (mole fraction) only. 2.72e-05

---

Settings: in n-butanol, 298.15 K
readout name: solubility (mole fraction)
The answer should be a number; do not append a unit.

// Input: "Cc1ccc(Nc2nccc(N(C)c3ccc4c(C)n(C)nc4c3)n2)cc1S(N)(=O)=O" . Output its solubility (mole fraction) only. 1.88e-05

---

Conditions: in n-propanol, 288.15 K
readout name: solubility (mole fraction)
The answer should be a number; do not append a unit.

// Input: "Cc1ccc(Nc2nccc(N(C)c3ccc4c(C)n(C)nc4c3)n2)cc1S(N)(=O)=O" . Output its solubility (mole fraction) only. 9.96e-06

---

Conditions: in n-propanol, 313.15 K
readout name: solubility (mole fraction)
The answer should be a number; do not append a unit.

// Input: "Cc1ccc(Nc2nccc(N(C)c3ccc4c(C)n(C)nc4c3)n2)cc1S(N)(=O)=O" . Output its solubility (mole fraction) only. 3.1e-05

---

Conditions: in acetonitrile, 288.15 K
readout name: solubility (mole fraction)
The answer should be a number; do not append a unit.

// Input: "Cc1ccc(Nc2nccc(N(C)c3ccc4c(C)n(C)nc4c3)n2)cc1S(N)(=O)=O" . Output its solubility (mole fraction) only. 1.08e-06

---

Conditions: in n-butanol, 328.15 K
readout name: solubility (mole fraction)
The answer should be a number; do not append a unit.

// Input: "Cc1ccc(Nc2nccc(N(C)c3ccc4c(C)n(C)nc4c3)n2)cc1S(N)(=O)=O" . Output its solubility (mole fraction) only. 5.43e-05

---

Conditions: in acetonitrile, 313.15 K
readout name: solubility (mole fraction)
The answer should be a number; do not append a unit.

// Input: "Cc1ccc(Nc2nccc(N(C)c3ccc4c(C)n(C)nc4c3)n2)cc1S(N)(=O)=O" . Output its solubility (mole fraction) only. 1.44e-05

---

Conditions: in n-butanol, 313.15 K
readout name: solubility (mole fraction)
The answer should be a number; do not append a unit.

// Input: "Cc1ccc(Nc2nccc(N(C)c3ccc4c(C)n(C)nc4c3)n2)cc1S(N)(=O)=O" . Output its solubility (mole fraction) only. 3.42e-05

---

Settings: in n-propanol, 308.15 K
readout name: solubility (mole fraction)
The answer should be a number; do not append a unit.

// Input: "Cc1ccc(Nc2nccc(N(C)c3ccc4c(C)n(C)nc4c3)n2)cc1S(N)(=O)=O" . Output its solubility (mole fraction) only. 2.55e-05

---

Settings: in n-propanol, 303.15 K
readout name: solubility (mole fraction)
The answer should be a number; do not append a unit.

// Input: "Cc1ccc(Nc2nccc(N(C)c3ccc4c(C)n(C)nc4c3)n2)cc1S(N)(=O)=O" . Output its solubility (mole fraction) only. 2.09e-05

Cited source for all entries: BigSolDB 2.1
